# method_summary: soluble fraction after stress (log2 fold change); higher = more stays soluble; pooled small domains, quantitative proteomics
# condition_set: stress: pH 4
Reported soluble fraction (log2) is given for each of the following sequences.
assay_metric: soluble fraction (log2)

sequence_content=HMYSIDNPPDWLKNLPKGAIRIGVEVFNQVLSKADDEDRARMAAWSAIKAKYEKADDGQWQPKAA assay_metric="soluble fraction (log2)" measured_result=0.221
sequence_content=HMGEVISRSYPLLKTKAKPAEVSEALQKLIKAPATVTFDEKNEVFHINATRLQHTWAEGYFKGLHGK assay_metric="soluble fraction (log2)" measured_result=-0.172
sequence_content=HMSIQELMNSKDLSSFKVEMLSDEDIAKYKGLLQNSGLTEAQAEQMALQRGLPSSELLKLKARLSGI assay_metric="soluble fraction (log2)" measured_result=0.0846
sequence_content=HMGFEALRSRHRITAREMEVLQHMLAGRSNAEIGHTLGLSERTVKTHITSIFNKLGVDSRAQLGYMLK assay_metric="soluble fraction (log2)" measured_result=0.366

----------
# method_summary: soluble fraction after stress (log2 fold change); higher = more stays soluble; pooled small domains, quantitative proteomics
# condition_set: stress: pH 4
Rule: soluble fraction (log2) under -0.07 gives F, otherwise T.

sequence_content=HMTLNTQLFTWKKGVRVGEDDQGNIYYRTKDDKRRWVIFTGETEATKVSPDWHGWLHRTWATPPNK class_assignment=F
sequence_content=HMPKSKTPDDAAEEFRTAFSALDMDGKVTVKDMAEYMGVIDKTVYARLKKMGDEFTLDKGVITKKT class_assignment=F
sequence_content=HMDMSVDQFNQGIRGSELYQQFIHGRGLQQPDGKTREWTDADRNAWRRTLEASGVRIPDGMKIDNAGNLNE class_assignment=T
sequence_content=HMTTPAAISKIKKLEEAKRLLATTTYSMKEIAVKLKYKSHTHFGMDFKNNTGMTPAEYRKAIKAKREKQMN class_assignment=T
sequence_content=HMDMRLADLIGRDGITITFMRPSGKVEIDGEIYDAVSDVGLIDKNEEVEVIKFENAQLVVTKKNKN class_assignment=T
sequence_content=HMPQISQDDLMEAGLIVGKEAKQRRIKLGEILGIGYVNAKQLPKRLQLFQVAKSDFEQAVQQIDG class_assignment=T
sequence_content=HMNMKVGPVPANVVPANIKAHVSNNYSKYQIVQMMQNDKGYQVKLSNGTDLYYDKDGNILKTS class_assignment=T
sequence_content=HMSKKQEQALQSREKLLDAATALFAEHGYRDTSVQAIGEKAGVSRGSIFWHFGSKEGLLWAVVERAFTA class_assignment=T
sequence_content=HMTGMEKFLTIPSIRESTAAFEREYLIHYLDENAWQVSKTAAAIGIERTTLYKKMKQLGIVPIEE class_assignment=F
sequence_content=HMPPELSDEVMEEAMSYLKNQYLNHGVKLEDYPALNKLFVDEAFRSEVIRKTQSNYKISYQSAMASLD class_assignment=F
sequence_content=HMKPDWLSDGRLIPDEVMSHLRKIAVHAVEEMGYSPEDVIKILGLSRNTIYDWLKRFREHGYEGLDTKK class_assignment=F
sequence_content=HMGYDDLEPFDANGRLRWSDQELVLAFGRHRGATLRTLELNDPSYLRWLLSGNGPLEQQDIQRLEQILES class_assignment=F
sequence_content=HMGPELGENEKLIFDIIKKESKMELGILKAQVDLSNKKWDKALKGLATHGLTKVNKTDDGLFIELI class_assignment=F
sequence_content=HMNNQVTFSKFLNEVEDGRVVEVNIQGNNITGVLSDGSKFKTFSPNYPNLVEKLSEKGVSINASPL class_assignment=T
sequence_content=HMRQIRELFRLKFGSLLPTSDRQIAAQLGVARSTVAEYLERARAAGLSWPLPLDLSDADLEERLFA class_assignment=T
sequence_content=HMGTGIKQVNVVSVIGQDEETAKTTLTNLGLKVNVTYATSTSDNGKVTKQSIDAGKTVDEGTSVTITVNKV class_assignment=F
sequence_content=HMVAGHLQEKNGQFYAVLSYKDTKGKRRTKWVPTGLMVRGNKKRAEAMLNDIRRKFVPPEQED class_assignment=T
sequence_content=HMIVKQPDIRKQELLDIGVRLYFEAGEKGVSIQQVVKQAGVATGLFYYYFSSKDAFLDEALNDYID class_assignment=T
sequence_content=HMKNTFGLTEREMEVLALIVDGLSNPEIAEKLFITRATAKAHVHSILQKLYVDDRTQAAVTAMREGL class_assignment=F
sequence_content=HMGDFLLQVDFPPALLEMLPEGKRQAAIGVLSHDPRPAYQRTPGRVYGLNFAGHNIRFAVSENLLTVLEV class_assignment=F
sequence_content=HMRALPFSFANRHGVLIREISDGVAHAVYRIGSSPLGLAEARRFVGMPLMLTPVAREAFDSLLQQTYEQG class_assignment=F
sequence_content=HMQTMTAGERREAILRELEQAQGPVSASALAKRFHVSRQAVVGDVAMLRALNSPIAATPRGYVLTR class_assignment=T
sequence_content=HMEKFTGELSQEEKNVLDALSHEEMHVDIIIKLTKLETSAVSSTLSLLEIKGLIKNIGGQNYIK class_assignment=F
sequence_content=HMKRIFEKKVVTESLNGLRLDKAAATLFADFSRNELGQWIKDEALLVNGKAKKVKEKVSEGDVLALDVELI class_assignment=T
sequence_content=HMNGKPDMTPIPAGSRNNDLHAWAYGRLLNHPDNAEAIRRDLFERGQTSGLKESELETIWQSIRRQLGGD class_assignment=T
sequence_content=HMALHDTLSYEEYLDLGLNGKADSAEKRELVAHALHLGRPNAKTLYKRLNMLQLNRKDVAALLEQ class_assignment=T
sequence_content=HMEQIPEEYKKIYSLITDIPININDIAKKSLLELREVSSKLTMLELDGKVVKLPGNMYIRGDL class_assignment=F
sequence_content=HMKNLDILTPKEIEVLNLVAKGYSNSKISKELDIAEVTVKKHIGSMFQKLDVKDRLSLALIL class_assignment=F
sequence_content=HMFPDRLRELRKGRNITLETLAEEMNKHLEPGQKPNTAAQIGNWERGDRSPSYIEVRKLADFFNVSMDFL class_assignment=F
sequence_content=HMGQPGNWTSYVFKNSDTEPAKPTSSGPIPSGWNDAPTGVGIWWMSKATIDASTGKAGSWSTPIRVTGED class_assignment=T
sequence_content=HMVINQRKLNLLSIYSSGSEKRAIILFPTGQTKFVKVGDTLDGGRVAAIGTSEIRYLKGGNNLVLRIPG class_assignment=T
sequence_content=HMQANLPFSELLADVDRGLISDVTIKGDQVSGHYTDGRTFNTFIPPEADLVRRLTEKNVRIAAVPD class_assignment=T

----------
# method_summary: soluble fraction after stress (log2 fold change); higher = more stays soluble; pooled small domains, quantitative proteomics
# condition_set: stress: pH 4
Rule: soluble fraction (log2) under -0.5 gives Condition not met, otherwise Condition met.

sequence_content=HMRTLSAGVAGRLRADILNGLLEPGRRLGMAELTERYGAGMSPVREALSRLVGEGLVQSEGQRGFRVA class_assignment="Condition met"
sequence_content=HMENNIPANIKALIISYVNQNYPGAVIHSIERNSNGTYDVEIYYNNREYDLLFDAQGNFISGNVDDQ class_assignment="Condition met"
sequence_content=HMGVNEGVNKLFKTIQETPGKRMPYYALATDVPEKTIERWLKQLREEGKIEFKGSAKTGGYFVIDK class_assignment="Condition met"
sequence_content=HMISKRFQIDEDNSNKRIDIFLTQSLDSISRGIVQQLILENKVEVNGGPVKRNYLIKIGDVIDVKIDL class_assignment="Condition not met"
sequence_content=HMRLPAISYSFARKHGVVLRLDGDRPVASLREGADPAILIEVKRHLDGAMGVEKVSEAAFDQLLSTTYA class_assignment="Condition met"
sequence_content=HMFDGTLSIYPNPSKGIFNLDLLNVKDGEYTITVDNLLGQEVYSEIRNVINSSSKTLDLSNLTKGV class_assignment="Condition met"
sequence_content=HMVNTYILNNKEYPIEIIRKNNKNTYLRVKEGKIIVTTNYLTSSFTINKLIKDNTSFINKALLKEN class_assignment="Condition met"
sequence_content=HMGEGTAVGKALKFLAAQGKKFAPELLDMAGSLTGVEALSKLGDAIKGDPELSELDKRILLAELETDAV class_assignment="Condition not met"
sequence_content=HMAKPAALLFEHRFDGMAEMRFRENIVKNDDGSYTYDEYFLSMLDRAGLEKIVQENMEVWIAYAKQ class_assignment="Condition not met"
sequence_content=HMEEQELQLIQFPIASGSAWAGKAVRELILPPETLLVMLIRGTETMIPKGDTMVQEGDTAVLSASAYRDD class_assignment="Condition not met"
sequence_content=HMKNQQLFNIGDRFQVDGVAYRMEKLFPENGTVEVYNLGVGRHKTMSFEEILALWNSGKLLFEI class_assignment="Condition not met"
sequence_content=HMIHSEDMDDHILGHKLVDQYLNKHIEFDNIKKAWNYHTVAIKKFGRYPHRNKILKRESTIEEIDFLKQP class_assignment="Condition met"
sequence_content=HMDADRLSPREREMLQFIARGQSNKEIARALELAESTVKIHVQNMLRKLNLSSRVQAAVFAVENGLG class_assignment="Condition met"
sequence_content=HMVVRRLPFGFSKRFGVLVVPGTSNPVELLYREDASMQSLLEARRVVAQPVAFKKTDVESFNAQLARAHEN class_assignment="Condition met"
sequence_content=HMFYNELMNFIVYKDSQKIGKIVNINDKLPQPVFEVLINDKKFMVPIHDDFIEKIDKEKKSIHIVIPDGLL class_assignment="Condition not met"
sequence_content=HMDNTSNVEKTLRFIRQRGKVSRKEVETLLGSSKFPAISALNELLAENKIVKTGSGPAVRYSVS class_assignment="Condition met"
